Hello, the source for this data is patent US20230091225A1, in case you need it.

Assignment: determine reported Dmax for the given compounds.
# MEASURED_ON: UniProt:P10275
# MEASUREMENT_DESCRIPTION: Degradation of androgen receptor (AR) protein in VCaP cells by ELISA
# Type: cell-based
# PARTICULARS: VCaP, AR degradation, VCaP cells, 16 h, ELISA, Table 3-2; read-out: Dmax (%)

## Input Which Dmax reading was recorded for the compound [2H]C([2H])([2H])Oc1cc(O[C@H]2C(C)(C)[C@H](N3Cc4nc(C#C[C@H]5CC[C@H](N6CCN(c7ccc8c(c7)C(=O)N(C7CCC(=O)NC7=O)C8=O)CC6)CC5)ccc4C3=O)C2(C)C)ccc1C#N (stereo partly shown) ?
## Output > 80%

## Input Another compound: CC1(C)[C@H](Oc2ccc(C#N)c(Cl)c2)C(C)(C)[C@H]1N1Cc2nc(C#C[C@H]3C[C@H](N4CCN(c5cnn(C6CCC(=O)NC6=O)c(=O)c5)CC4)C3)ccc2C1=O (stereo partly shown)
## Output 60 to 80%

## Input Next entry: N#Cc1ccc(O[C@H]2CC[C@H](NC(=O)c3nnc(N4CCC(CN5CCC6(CC5)CN(c5ccc7c(c5)C(=O)N(C5CCC(=O)NC5=O)C7=O)C6)CC4)o3)CC2)cc1Cl (stereo partly shown)
## Output > 80%

## Input Do the same for COc1cc(O[C@H]2C(C)(C)[C@H](N3Cc4nc(C#C[C@H]5C[C@H](N6CCN(c7cc8c(cc7F)C(=O)N(C7CCC(=O)NC7=O)C8=O)CC6)C5)ccc4C3=O)C2(C)C)ccc1C#N (stereo partly shown) please
## Output > 80%

## Input Now consider CCOc1cc(O[C@H]2C(C)(C)[C@H](N3Cc4nc(C#C[C@H]5CC[C@H](N6CCN(c7ccc8c(c7)C(=O)N(C7CCC(=O)NC7=O)C8=O)CC6)CC5)ccc4C3=O)C2(C)C)ccc1C#N (stereo partly shown) .
## Output 60 to 80%

## Input Entry to check: N#Cc1ccc(O[C@H]2CC[C@H](NC(=O)c3cnc(N4CCC(CN5CCC6(CC5)CN(c5ccc7c(c5)C(=O)N(C5CCC(=O)NC5=O)C7=O)C6)CC4)nn3)CC2)cc1C(F)(F)F (stereo partly shown)
## Output > 80%

## Input Proceed to CC1(C)[C@H](Oc2ccc(C#N)c(Br)c2)C(C)(C)[C@H]1N1Cc2nc(C#C[C@H]3CC[C@H](N4CCN(c5cc6c(cc5F)C(=O)N(C5CCC(=O)NC5=O)C6=O)CC4)CC3)ccc2C1=O (stereo partly shown)
## Output > 80%

## Input And the next one, CC1(C)[C@H](Oc2ccc(C#N)c(Cl)c2)C(C)(C)[C@H]1N1Cc2nc(C#C[C@H]3C[C@H](N4CCN(c5ccc6c(=O)n(C7CCC(=O)NC7=O)cnc6c5)CC4)C3)ccc2C1=O (stereo partly shown) ?
## Output > 80%

## Input Now consider N#Cc1ccc(O[C@H]2CC[C@H](NC(=O)c3cnc(N4CCC(CN5CCC6(CC5)CN(c5cc7c(cc5F)C(=O)N(C5CCC(=O)NC5=O)C7)C6)CC4)nn3)CC2)cc1Cl (stereo partly shown) .
## Output > 80%

## Input Try this compound too: COc1cc(O[C@H]2C(C)(C)[C@H](N3Cc4nc(C#C[C@H]5C[C@H](N6CCN(c7ccc8c(c7)C(=O)N(C7CCC(=O)NC7=O)C8=O)CC6)C5)ccc4C3=O)C2(C)C)ccc1C#N (stereo partly shown)
## Output > 80%

====

For each record, write down the corresponding IC50.
# Test system: LNCaP/AR cells
# MEASUREMENT_DESCRIPTION: Inhibition of proliferation of LNCaP/AR prostate cancer cells (CCK-8)
# Type: cell-based
# PARTICULARS: LNCaP/AR, 144 h

## Input So what's the measured IC50 for this one? Cc1ncsc1-c1ccc([C@@H](C)NC(=O)[C@H]2C[C@@H](O)CN2C(=O)[C@H](NC(=O)COCCCCCNc2ccc(C(=O)NC3C[C@]4(C)O[C@@]3(C)[C@@H]3C(=O)N(c5ccc(C#N)c(Cl)c5)C(=O)[C@@H]34)c(F)c2)C(C)(C)C)cc1 (stereo partly shown) [Compound 20]
## Output < 100 nM

## Input // repeat for CC(=O)O[C@@H]1C[C@@H](C(=O)N[C@@H](CO)c2ccc(-c3scnc3C)cc2)N(C(=O)[C@@H](NC(=O)COCCCCC#Cc2ccc3c(c2)CN([C@H]2C(C)(C)[C@H](Oc4ccc(C#N)c(Cl)c4)C2(C)C)C3=O)C(C)(C)C)C1 [Compound 49] and report
## Output < 100 nM

## Input What about N#Cc1ccc(O[C@H]2CC[C@H](N3Cc4cc(N5CCC(CN6CCN(c7cc8c(cc7F)C(=O)N(C7CCC(=O)NC7=O)C8=O)CC6)CC5)ncc4C3=O)CC2)cc1Cl (stereo partly shown) [Compound 311] ?
## Output > 1000 nM

## Input Also check CC(=O)O[C@@H]1C[C@@H](C(=O)N[C@@H](C)c2ccc(-c3scnc3C)cc2)N(C(=O)[C@@H](NC(=O)COCCCCCNc2ccc3c(c2)C(=O)N([C@H]2C(C)(C)[C@H](Oc4ccc(C#N)c(Cl)c4)C2(C)C)C3)C(C)(C)C)C1 [Compound 6]
## Output < 100 nM

====

# MEASURED_ON: androgen receptor (AR) (Homo sapiens, UniProt P10275)
# Sequence (P10275 1-920): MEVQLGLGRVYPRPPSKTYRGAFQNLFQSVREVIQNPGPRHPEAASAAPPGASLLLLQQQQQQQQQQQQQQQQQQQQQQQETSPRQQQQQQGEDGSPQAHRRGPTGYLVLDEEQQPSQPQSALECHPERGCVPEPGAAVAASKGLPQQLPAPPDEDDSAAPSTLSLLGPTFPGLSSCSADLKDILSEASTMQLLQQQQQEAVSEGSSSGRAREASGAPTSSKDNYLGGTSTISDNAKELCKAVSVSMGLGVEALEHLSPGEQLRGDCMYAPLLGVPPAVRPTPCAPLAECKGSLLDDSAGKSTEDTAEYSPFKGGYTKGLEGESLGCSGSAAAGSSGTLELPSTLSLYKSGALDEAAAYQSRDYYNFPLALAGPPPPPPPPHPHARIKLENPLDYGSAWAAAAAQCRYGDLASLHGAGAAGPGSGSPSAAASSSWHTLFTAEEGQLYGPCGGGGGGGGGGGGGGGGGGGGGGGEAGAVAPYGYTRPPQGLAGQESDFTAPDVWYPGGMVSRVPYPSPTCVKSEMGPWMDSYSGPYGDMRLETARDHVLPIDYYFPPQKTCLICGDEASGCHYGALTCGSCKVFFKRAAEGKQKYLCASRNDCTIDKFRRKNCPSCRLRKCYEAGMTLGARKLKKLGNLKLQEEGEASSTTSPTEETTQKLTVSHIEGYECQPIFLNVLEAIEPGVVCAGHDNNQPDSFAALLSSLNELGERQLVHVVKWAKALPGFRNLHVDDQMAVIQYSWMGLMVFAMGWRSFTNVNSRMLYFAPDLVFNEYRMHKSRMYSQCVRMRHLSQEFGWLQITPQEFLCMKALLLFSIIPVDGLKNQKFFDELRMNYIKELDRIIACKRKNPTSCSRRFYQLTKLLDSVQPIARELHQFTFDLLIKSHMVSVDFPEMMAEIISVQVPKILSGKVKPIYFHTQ
# MEASUREMENT_DESCRIPTION: Degradation of androgen receptor (AR) protein in VCaP cells by ELISA
# Assay type: cell-based
# PARTICULARS: percentage of degraded AR at 100 nM, VCaP cells, 16 h, ELISA; read-out: % degradation
MEASURED_METRIC: inhibition at 0.1 µM

## Input Can you look up the measured inhibition at 0.1 µM of N#Cc1ccc(O[C@H]2CC[C@H](N3Cc4nc(N5CCC(CN6CCN(c7cc8c(cc7F)CN(C7CCC(=O)NC7=O)C8=O)CC6)CC5)ccc4C3=O)CC2)cc1Cl (stereo partly drawn) for me?
## Output < 25%

## Input Check Cc1ncsc1-c1ccc([C@H](C)NC(=O)[C@@H]2C[C@@H](O)CN2C(=O)[C@@H](NC(=O)COCCC#Cc2ccc3c(c2)CN([C@H]2C(C)(C)[C@H](Oc4ccc(C#N)c(Cl)c4)C2(C)C)C3=O)C(C)(C)C)cc1 too.
## Output 50 to 79%

## Input Cool, now N#Cc1ccc(O[C@H]2CC[C@H](N3Cc4nc(N5CC[C@@H](CN6CCN(c7cc8c(cc7F)C(=O)N(C7CCC(=O)NC7=O)C8)CC6)C5)ccc4C3=O)CC2)cc1Cl (stereo partly drawn)
## Output 25 to 49%

====

# MEASURED_ON: UniProt P10275
# Sequence (P10275 1-920): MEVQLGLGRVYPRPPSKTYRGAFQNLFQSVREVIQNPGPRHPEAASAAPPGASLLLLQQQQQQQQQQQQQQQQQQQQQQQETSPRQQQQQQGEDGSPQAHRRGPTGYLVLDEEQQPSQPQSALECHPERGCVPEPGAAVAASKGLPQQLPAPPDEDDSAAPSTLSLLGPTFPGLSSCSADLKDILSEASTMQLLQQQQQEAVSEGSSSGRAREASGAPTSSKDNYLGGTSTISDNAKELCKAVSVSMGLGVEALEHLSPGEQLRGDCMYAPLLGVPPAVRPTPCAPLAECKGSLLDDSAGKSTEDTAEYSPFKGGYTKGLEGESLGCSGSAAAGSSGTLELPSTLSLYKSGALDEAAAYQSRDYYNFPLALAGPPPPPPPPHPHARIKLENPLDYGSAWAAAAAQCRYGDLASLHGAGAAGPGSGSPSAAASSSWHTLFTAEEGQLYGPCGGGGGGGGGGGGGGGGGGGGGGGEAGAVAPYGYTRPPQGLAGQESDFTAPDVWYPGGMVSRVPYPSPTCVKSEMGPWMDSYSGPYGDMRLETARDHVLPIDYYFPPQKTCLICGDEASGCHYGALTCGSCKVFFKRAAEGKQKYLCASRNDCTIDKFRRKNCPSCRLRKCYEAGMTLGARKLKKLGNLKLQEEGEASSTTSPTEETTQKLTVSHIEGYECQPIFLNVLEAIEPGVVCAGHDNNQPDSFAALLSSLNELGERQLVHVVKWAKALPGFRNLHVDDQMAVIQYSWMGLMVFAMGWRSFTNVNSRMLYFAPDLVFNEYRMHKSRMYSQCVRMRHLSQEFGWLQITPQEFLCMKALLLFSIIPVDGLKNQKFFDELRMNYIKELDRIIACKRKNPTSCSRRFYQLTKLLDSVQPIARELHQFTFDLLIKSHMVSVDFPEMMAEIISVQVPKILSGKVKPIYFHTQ
# MEASUREMENT_DESCRIPTION: Degradation of androgen receptor (AR) protein in VCaP cells by Western blot
# Type: cell-based
# PARTICULARS: percentage of degraded AR at 100 nM, VCaP cells, 16 h
# Description: Determination of the Degradation Activity of the Compound on Androgen Receptor (AR) Protein by Western Blot 1) VCaP cells were subcultured in cell culture media, and then the cells in good growth condition were seeded in a 12-well plate at 1 ml/well (5×10^5 cells/well), and cultured overnight in a 37° C., 5% CO2 cell incubator. 2) The test compound was prepared into a 10 mM stock solution with dimethyl sulfoxide (DMSO). […] The protein concentration was measured with BCA kit. […]
MEASURED_METRIC: inhibition at 0.1 µM

## Input Entry N#Cc1ccc(O[C@H]2CC[C@H](NC(=O)c3cnc(N4CCC(N5CC6(CCN(c7cc8c(cc7F)C(=O)N(C7CCC(=O)NC7=O)C8=O)CC6)C5)CC4)cn3)CC2)cc1Cl (stereo partly shown) : reported inhibition at 0.1 µM = ?
## Output > 80%

## Input One more molecule: CC1(C)[C@H](Oc2ccc(C#N)c(Cl)c2)C(C)(C)[C@H]1N1Cc2nc(C#CC3CC(NC4CCN(c5cc6c(cc5F)C(=O)N(C5CCC(=O)NC5=O)C6=O)CC4)C3)ccc2C1=O (stereo partly shown)
## Output 50 to 79%

## Input Same question, N#Cc1ccc(O[C@H]2CC[C@H](NC(=O)c3ccc(N4CCC5(CN(CC6CCN(c7cc8c(cc7F)C(=O)N(C7CCC(=O)NC7=O)C8=O)CC6)C5)C4)nn3)CC2)cc1Cl (stereo partly shown) this time
## Output > 80%

## Input N#Cc1ccc(O[C@H]2CC[C@H](NC(=O)c3cnc(N4CCC(CN5CCC(Nc6ccc7c(c6)C(=O)N(C6CCC(=O)NC6=O)C7=O)CC5)CC4)cn3)CC2)cc1Cl (stereo partly shown) , same question.
## Output > 80%

## Input Note, next up: CC1(C)[C@H](NC(=O)c2ccc(N3CCC(CN4CCN(c5cc6c(cc5F)CN(C5CCC(=O)NC5=O)C6=O)CC4)CC3)nc2)C(C)(C)[C@H]1Oc1ccc(C#N)c(Cl)c1 (stereo partly shown)
## Output 50 to 79%

## Input // same read-out, input: N#Cc1ccc(O[C@H]2CC[C@H](NC(=O)c3ccc(N4CCN(C[C@@H]5[C@H]6CN(c7ccc8c(c7)C(=O)N(C7CCC(=O)NC7=O)C8=O)C[C@@H]56)CC4)nn3)CC2)cc1Cl (stereo partly shown)
## Output 50 to 79%

## Input Also N#Cc1ccc(O[C@H]2CC[C@H](NC(=O)c3cnc(N4CCC5(CCN(CC6CCN(c7cc8c(cc7F)C(=O)N(C7CCC(=O)NC7=O)C8=O)CC6)C5)C4)cn3)CC2)cc1Cl (stereo partly shown) , if possible.
## Output > 80%

## Input Note, next up: N#Cc1ccc(O[C@H]2CC[C@H](NC(=O)c3ccc(N4CCC(N5CC6(CCN(c7cc8c(cc7F)C(=O)N(C7CCC(=O)NC7=O)C8=O)CC6)C5)CC4)nn3)CC2)cc1Cl (stereo partly shown)
## Output > 80%

## Input # iterate: N#Cc1ccc(O[C@H]2CC[C@H](NC(=O)c3cnc(N4C[C@@H]5[C@@H](CN6CCN(c7cc8c(cc7F)C(=O)N(C7CCC(=O)NC7=O)C8=O)CC6)[C@@H]5C4)cn3)CC2)cc1Cl (stereo partly shown)
## Output 50 to 79%

## Input For N#Cc1ccc(O[C@H]2CC[C@H](NC(=O)c3cnc(N4CCC5(CCN(C6CCN(c7cc8c(cc7F)C(=O)N(C7CCC(=O)NC7=O)C8=O)CC6)C5)C4)cn3)CC2)cc1Cl (stereo partly shown) then?
## Output 50 to 79%
